Molecular target: TLR8 (Homo sapiens, UniProt Q9NR97)
Sequence (Q9NR97 27-1041): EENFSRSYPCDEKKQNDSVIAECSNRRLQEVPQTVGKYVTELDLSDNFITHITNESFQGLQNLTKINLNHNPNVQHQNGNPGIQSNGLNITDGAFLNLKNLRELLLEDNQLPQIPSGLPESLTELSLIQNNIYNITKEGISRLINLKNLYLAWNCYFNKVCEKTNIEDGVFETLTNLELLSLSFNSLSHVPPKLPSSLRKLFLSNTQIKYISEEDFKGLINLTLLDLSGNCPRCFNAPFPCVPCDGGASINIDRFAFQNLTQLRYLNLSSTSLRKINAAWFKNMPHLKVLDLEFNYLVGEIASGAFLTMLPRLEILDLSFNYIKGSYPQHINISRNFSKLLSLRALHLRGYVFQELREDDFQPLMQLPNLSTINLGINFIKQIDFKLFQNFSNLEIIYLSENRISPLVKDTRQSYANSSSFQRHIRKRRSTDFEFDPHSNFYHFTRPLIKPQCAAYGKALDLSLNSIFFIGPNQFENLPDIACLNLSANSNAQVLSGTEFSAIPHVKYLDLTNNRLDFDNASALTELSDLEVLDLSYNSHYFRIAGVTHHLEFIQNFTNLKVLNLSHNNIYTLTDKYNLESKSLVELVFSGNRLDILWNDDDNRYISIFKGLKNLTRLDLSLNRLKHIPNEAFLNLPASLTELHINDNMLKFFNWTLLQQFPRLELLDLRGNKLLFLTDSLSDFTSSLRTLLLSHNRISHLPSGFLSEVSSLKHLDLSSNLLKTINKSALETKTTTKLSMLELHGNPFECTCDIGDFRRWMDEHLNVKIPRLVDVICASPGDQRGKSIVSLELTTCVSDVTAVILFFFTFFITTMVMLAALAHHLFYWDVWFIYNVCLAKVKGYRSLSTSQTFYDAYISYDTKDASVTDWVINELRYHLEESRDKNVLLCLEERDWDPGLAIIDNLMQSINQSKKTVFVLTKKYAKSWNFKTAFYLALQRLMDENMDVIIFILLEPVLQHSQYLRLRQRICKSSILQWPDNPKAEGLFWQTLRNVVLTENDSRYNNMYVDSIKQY
Assay: HEK/293 TLR8 Cell Assay
Details: HEK cells, R848 agonist 30 uM final concentration, Steady-Glo readout; read-out: TLR8 potency
Where a name gives a salt, the structure may show the parent alone.
parameter.measured: IC50

The cases that follow already have their IC50 on record.
CN1CC[C@@](F)(CNC(=O)[C@H]2CN(c3cnc(C#N)c4ncccc34)C[C@@H](C(F)(F)F)O2)C1 (single isomer, unassigned)
> 150 nM
C[C@H]1C[C@@H](NCC(O)CO)CN(c2cnc(C#N)c3ncccc23)C1 (stereo partly drawn)
> 150 nM
CC(=O)N1CCC(NC(=O)[C@H]2CN(c3ccc(C#N)c4nccnc34)C[C@@H](C)O2)CC1
< 75 nM
C[C@H]1C[C@@H](NCC2CCC(=O)N2)CN(c2ccc(C(F)(F)F)c3ncccc23)C1 (stereo partly drawn)
< 75 nM
N#Cc1ccc(N2C[C@@H](C(=O)N[C@H]3CNC[C@H]3F)O[C@@H](C(F)(F)F)C2)c2nccnc12 (single isomer, unassigned)
< 75 nM

Input: Query (molecule): `C[C@@H]1CN(c2ccc(C#N)c3nccnc23)C[C@H](C(=O)NCC2(F)CCN(C)CC2)O1` ; field requested: IC50
Output: < 75 nM

Input: Query (molecule): C[C@@H]1CN(c2ccc(C#N)c3nccnc23)C[C@H](C(=O)N[C@H]2CNC[C@H]2F)O1 [Example 294, hydrochloride] ; field requested: IC50
Output: < 75 nM

Input: Query (molecule): `C[C@H]1CN(c2ccc(C#N)c3nccnc23)C[C@H](CN2CCC(N3CCCC3)CC2)O1` ; field requested: IC50
Output: < 75 nM

Input: Query (molecule): `Cc1c(F)cc(N2C[C@H](NC(=O)[C@@H]3CCCN3)C[C@H](C(F)(F)F)C2)c2cccnc12` ; field requested: IC50
Output: < 75 nM

Input: Query (molecule): `Cc1ccc(N2C[C@H](NC(=O)CC3(O)CCN(C)CC3)C[C@H](C(F)(F)F)C2)c2cccnc12` ; field requested: IC50
Output: < 75 nM

Input: Query (molecule): Cc1ncc(N2C[C@H](NC(=O)C(F)C3CCNC3)C[C@H](C(F)(F)F)C2)c2cccnc12 (stereo partly drawn) ; field requested: IC50
Output: < 75 nM

Input: Query (molecule): `C[C@@H]1CN(c2cnc(C(F)(F)F)c3ncccc23)C[C@H](CO)O1` ; field requested: IC50
Output: > 150 nM

Input: Query (molecule): C[C@@H]1CN(c2cnc(C#N)c3ncccc23)C[C@H](C(=O)NCC2CCCN2C)O1 (stereo partly drawn) ; field requested: IC50
Output: < 75 nM

* * *

Biological target: TLR7 (Homo sapiens)
Sequence (Q9NYK1 27-1049): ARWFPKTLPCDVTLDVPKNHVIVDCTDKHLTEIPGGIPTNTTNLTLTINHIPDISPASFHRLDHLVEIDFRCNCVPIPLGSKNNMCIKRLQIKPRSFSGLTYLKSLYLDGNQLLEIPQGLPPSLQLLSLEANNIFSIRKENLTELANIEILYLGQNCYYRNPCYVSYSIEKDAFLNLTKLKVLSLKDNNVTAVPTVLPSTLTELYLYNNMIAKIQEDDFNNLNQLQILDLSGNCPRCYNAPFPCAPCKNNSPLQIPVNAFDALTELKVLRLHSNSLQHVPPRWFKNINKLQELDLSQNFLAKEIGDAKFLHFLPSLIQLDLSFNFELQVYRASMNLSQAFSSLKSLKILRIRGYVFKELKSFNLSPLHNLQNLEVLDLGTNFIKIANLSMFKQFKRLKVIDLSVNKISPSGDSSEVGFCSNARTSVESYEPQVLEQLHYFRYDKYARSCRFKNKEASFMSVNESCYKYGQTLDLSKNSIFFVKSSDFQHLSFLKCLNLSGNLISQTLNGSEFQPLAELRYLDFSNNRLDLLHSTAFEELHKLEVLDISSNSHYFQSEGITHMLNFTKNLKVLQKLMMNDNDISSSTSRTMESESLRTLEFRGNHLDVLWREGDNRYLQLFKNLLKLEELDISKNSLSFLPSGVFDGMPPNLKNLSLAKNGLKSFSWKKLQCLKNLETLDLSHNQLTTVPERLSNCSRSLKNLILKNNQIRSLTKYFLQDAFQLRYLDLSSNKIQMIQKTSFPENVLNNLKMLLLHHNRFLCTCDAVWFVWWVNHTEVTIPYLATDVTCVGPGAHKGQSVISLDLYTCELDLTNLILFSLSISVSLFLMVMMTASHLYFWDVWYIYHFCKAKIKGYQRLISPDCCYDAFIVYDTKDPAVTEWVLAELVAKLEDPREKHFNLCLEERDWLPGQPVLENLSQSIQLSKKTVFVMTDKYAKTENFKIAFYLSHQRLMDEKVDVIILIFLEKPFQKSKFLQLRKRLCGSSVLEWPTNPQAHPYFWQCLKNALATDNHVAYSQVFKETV
Assay: HEK/293 TLR7 Cell Assay
Conditions: TLR7/NFKb HEK cells, R848 agonist 10 uM final concentration, Steady-Glo readout; read-out: TLR7 potency
parameter.measured: IC50

The cases that follow already have their IC50 on record.
C[C@@H]1CN(c2ccc(C#N)c3nccnc23)C[C@H](C(=O)NCC2CCCN2C)O1 (stereo partly drawn)
< 75 nM
C[C@H]1C[C@@H](NCCNS(C)(=O)=O)CN(c2ccc(C#N)c3nccnc23)C1
< 75 nM
C[C@@H]1CN(c2ccc(C#N)c3nccnc23)C[C@H](C(=O)NCCC2CS(=O)(=O)C2)O1
< 75 nM
C[C@H]1C[C@@H](OCCN2CCN(C)CC2)CN(c2ccc(C#N)c3nccnc23)C1 (racemic)
< 75 nM
C[C@@H]1CN(c2cnc(C#N)c3ncccc23)C[C@H](CNC(=O)C2(F)CCNC2)O1 (stereo partly drawn)
75 to 150 nM

Input: Query (compound): `C[C@H]1C[C@@H](NC(=O)C[C@H]2[C@@H]3C[C@H]2CN(C)C3)CN(c2ccc(C(F)(F)F)c3ncccc23)C1` ; field requested: IC50
Output: < 75 nM

Input: Query (compound): C[C@H]1C[C@@H](NC(=O)[C@H](C)N2CCN(C)CC2)CN(c2ccc(C(F)(F)F)c3ncccc23)C1 (single isomer, unassigned) ; field requested: IC50
Output: < 75 nM

Input: Query (compound): `C[C@@H]1CN(c2ccc(C#N)c3nccnc23)C[C@H](C(=O)N[C@@H]2CCN(CC3CC3)C2)O1` ; field requested: IC50
Output: < 75 nM

Input: Query (compound): `C[C@H]1CN(c2ccc(C#N)c3nccnc23)C[C@H](CN2CCN(C)CC2)O1` ; field requested: IC50
Output: < 75 nM

Input: Query (compound): `CN(C)CCC(=O)N[C@@H]1C[C@H](C(F)(F)F)CN(c2ccc(C#N)c3nccnc23)C1` ; field requested: IC50
Output: < 75 nM

Input: Query (compound): C[C@@H]1CN(c2ccc(C#N)c3nccnc23)C[C@H](C(=O)NC[C@@H]2CN(C)CCO2)O1 (single isomer, unassigned) ; field requested: IC50
Output: < 75 nM

Input: Query (compound): `C[C@H]1C[C@@H](NC(=O)CCC2CCN(C)CC2)CN(c2ccc(C#N)c3ncncc23)C1` ; field requested: IC50
Output: 75 to 150 nM

Input: Query (compound): C[C@@H]1CN(c2ccc(C#N)c3nccnc23)C[C@H](C(=O)NC[C@@H](O)CN(C)C)O1 (single isomer, unassigned) ; field requested: IC50
Output: < 75 nM
